Data credit: PubChem BioAssay (NCATS)

assay: qHTS drug screen for cell cycle checkpoint inhibitors in PARPi-resistant BRCA-mutant ovarian cancer cell lines. (AID 1963452); details: PEO1/OlaR viability, CellTiter-Glo luminescence, 96 h; hits give low values
We label by threshold. Values of Z-AUC strictly beneath -0.05 are Y. Values of -0.05 and up are N.

Query: Quick check: does "CC1=C2[N-][C@H]([C@H](CC(N)=O)[C@@]2(C)CCC(=O)NC[C@@H](C)OP(=O)([O-])O[C@H]2[C@@H](O)[C@@H](n3cnc4cc(C)c(C)cc43)O[C@@H]2CO)[C@]2(C)N=C(C(C)=C3N=C(C=C4N=C1[C@@H](CCC(N)=O)C4(C)C)[C@@H](CCC(N)=O)[C@]3(C)CC(N)=O)[C@@H](CCC(N)=O)[C@]2(C)CC(N)=O.O.[Co+2]" have Z-AUC under -0.05?
Reply: Y

Query: Quick check: does "Fc1ccc(-c2csc3ncnc(NCc4ccc5c(c4)OCO5)c23)cc1" have Z-AUC under -0.05?
Reply: N

Query: Quick check: does "CC(C)Oc1ccc(-c2nc(-c3cccc4c3CC[C@@H]4NCCO)no2)cc1C#N" have Z-AUC under -0.05?
Reply: N

Query: Quick check: does "Cc1ccc(-n2c(C)cc(-c3nnc4n3CCCCC4)c2C)cc1" have Z-AUC under -0.05?
Reply: N

Query: Quick check: does "CC1(N)CCN(c2cnc(-c3cccc(Cl)c3Cl)c(N)n2)CC1" have Z-AUC under -0.05?
Reply: Y

Query: Quick check: does "CC/C(=C(/c1ccc(O)cc1)c1ccc(OCCNC)cc1)c1ccccc1" have Z-AUC under -0.05?
Reply: N

Query: Quick check: does "Cn1cc(/C=C/C(=O)c2cccc(F)c2)cc1/C=C/C(=O)NO" have Z-AUC under -0.05?
Reply: N

Query: Quick check: does "COC(=O)[C@H]1[C@@H](O)[C@@]2(O)c3c(OC)cc(O[C@@H]4O[C@@H]([C@@H](O)CO)CO[C@H]4OC)cc3O[C@@]2(c2ccc(OC)cc2)[C@@H]1c1ccccc1" have Z-AUC under -0.05?
Reply: N

Query: Quick check: does "C=C1C(=O)O[C@H]2C[C@H](C)C(/C=C/C(C)=O)=CC[C@H]12" have Z-AUC under -0.05?
Reply: N

Query: Quick check: does Nc1nc(OC(c2ccc(-c3cccc(F)c3)cc2)C(F)(F)F)cc(-c2ccc(C[C@@H](N)C(=O)O)cc2)n1 (stereo partly drawn) have Z-AUC under -0.05?
Reply: N

Query: Quick check: does "O=C(/C=C/C#Cc1cccc(NS(=O)(=O)c2ccccc2)c1)NO" have Z-AUC under -0.05?
Reply: Y

Query: Quick check: does Cc1ccc(NS(=O)(=O)c2ccc3c(c2)C2C=CCC2C(c2ccc(C(=O)O)cc2)N3)cc1C (stereo not drawn) have Z-AUC under -0.05?
Reply: Y

Query: Quick check: does "Nc1nccc(-c2c(-c3ccc(F)cc3)ncn2C2CCN(Cc3ccon3)CC2)n1" have Z-AUC under -0.05?
Reply: N

Query: Quick check: does "O=C(O)c1ccccc1-c1ccc(/C=c2\sc3nc4cc(Br)cnc4n3c2=O)o1" have Z-AUC under -0.05?
Reply: Y

Query: Quick check: does C/C=C(/C)C(=O)O[C@H]1C(C)=CC23C(=O)C(C=C(CO)[C@@H](O)[C@]12O)[C@H]1[C@@H](C[C@H]3C)C1(C)C (stereo partly drawn) have Z-AUC under -0.05?
Reply: Y

Query: Quick check: does "CCN(C(=O)c1ccccc1OC)c1cc2c(cc1N1CCNC[C@H]1C)n(C)c(=O)n2C" have Z-AUC under -0.05?
Reply: Y

Query: Quick check: does "Cc1ccc(NC(=O)c2ccc3c(c2)OCCO3)cc1NC(=O)c1ccc2nc(OCCN3CCCC3)ccc2c1" have Z-AUC under -0.05?
Reply: Y

Query: Quick check: does "O=C(O)CCCCN(CCc1ccccc1OCc1ccc(CCc2ccccc2)cc1)Cc1ccc(C(=O)O)cc1" have Z-AUC under -0.05?
Reply: N

Query: Quick check: does "C[C@@H]1C[C@H](N)C[C@H](c2ccncc2NC(=O)c2ccc(F)c(-c3c(F)cccc3F)n2)C1" have Z-AUC under -0.05?
Reply: Y

Query: Quick check: does "COc1cc(C(=O)O)ccc1NC(=O)[C@@H]1N[C@@H](CC(C)(C)C)[C@](C#N)(c2ccc(Cl)cc2F)[C@H]1c1cccc(Cl)c1F" have Z-AUC under -0.05?
Reply: N

Query: Quick check: does "C=CC(=O)N1CC(N2CCN(C(=O)CNc3cc(C4(C)CC4)c(Cl)cc3O)CC2)C1" have Z-AUC under -0.05?
Reply: Y

Query: Quick check: does "CN(C)CCN1C(=O)c2cccc3cc(NC(N)=O)cc(c23)C1=O" have Z-AUC under -0.05?
Reply: Y

Query: Quick check: does "C=CCN(/C=C1\C(=O)O[C@@H](COC)[C@]2(C)C1=C(O)C(=O)C1=C2[C@@H](OC(C)=O)C[C@]2(C)C(=O)CC[C@H]12)CC=C" have Z-AUC under -0.05?
Reply: Y

Query: Quick check: does "Cc1ccc(NC(=O)[C@H]2CCCN(C(=O)c3c(C)cccc3F)[C@H]2c2ccc(NC3CCCC3)cc2)cc1C(F)(F)F" have Z-AUC under -0.05?
Reply: Y

Query: Quick check: does C=CCNC1=C2CC(C)CC(OC)C(O)C(C)/C=C(\C)C(OC(N)=O)C(OC)/C=C/C=C(\C)C(=O)NC(=CC1=O)C2=O (stereo not drawn) have Z-AUC under -0.05?
Reply: Y

Query: Quick check: does "CC1(C)CCC2(CC1)N[C@@H](C(=O)N[C@@H]1CC[C@@H](C(N)=O)OC1)[C@H](c1ccnc(Cl)c1F)[C@]21C(=O)Nc2cc(Cl)ccc21" have Z-AUC under -0.05?
Reply: Y

Query: Quick check: does "Cc1c(C(=O)Nc2ccc(Oc3ccnc4[nH]cc(-c5ccccc5)c34)c(F)c2)c(=O)n(-c2ccc(F)cc2)n1C" have Z-AUC under -0.05?
Reply: N

Query: Quick check: does "O=C(/C=C\n1cnc(-c2cc(C(F)(F)F)cc(C(F)(F)F)c2)n1)NNc1ccccn1" have Z-AUC under -0.05?
Reply: Y

Query: Quick check: does "CC(C)Oc1ccc(-c2nn([C@@H](C)c3oc4ccc(F)cc4c(=O)c3-c3cccc(F)c3)c3ncnc(N)c23)cc1F" have Z-AUC under -0.05?
Reply: N

Query: Quick check: does "COc1cc(-c2cn(C)c(=O)c3cnccc23)cc(OC)c1CN(C)C" have Z-AUC under -0.05?
Reply: N

Query: Quick check: does "C=CC(=O)N1CCC[C@H](n2c(=O)n(-c3ccc(Oc4ccccc4)cc3)c3c(N)ncnc32)C1" have Z-AUC under -0.05?
Reply: Y

Query: Quick check: does "C=CC(=O)N1C[C@H](Nc2ncnc3[nH]ccc23)CC[C@@H]1C" have Z-AUC under -0.05?
Reply: Y

====

molecular target: Glucocorticoid receptor (Homo sapiens) (UniProt P04150); experiment: GR-GFP Redistribution (AID 450); conditions: U2OS GR-GFP nuclear translocation, laser cytometry, 2 h; note: potency is the fitted concentration of half-maximal effect
Sequence (P04150 whole entry, looked up): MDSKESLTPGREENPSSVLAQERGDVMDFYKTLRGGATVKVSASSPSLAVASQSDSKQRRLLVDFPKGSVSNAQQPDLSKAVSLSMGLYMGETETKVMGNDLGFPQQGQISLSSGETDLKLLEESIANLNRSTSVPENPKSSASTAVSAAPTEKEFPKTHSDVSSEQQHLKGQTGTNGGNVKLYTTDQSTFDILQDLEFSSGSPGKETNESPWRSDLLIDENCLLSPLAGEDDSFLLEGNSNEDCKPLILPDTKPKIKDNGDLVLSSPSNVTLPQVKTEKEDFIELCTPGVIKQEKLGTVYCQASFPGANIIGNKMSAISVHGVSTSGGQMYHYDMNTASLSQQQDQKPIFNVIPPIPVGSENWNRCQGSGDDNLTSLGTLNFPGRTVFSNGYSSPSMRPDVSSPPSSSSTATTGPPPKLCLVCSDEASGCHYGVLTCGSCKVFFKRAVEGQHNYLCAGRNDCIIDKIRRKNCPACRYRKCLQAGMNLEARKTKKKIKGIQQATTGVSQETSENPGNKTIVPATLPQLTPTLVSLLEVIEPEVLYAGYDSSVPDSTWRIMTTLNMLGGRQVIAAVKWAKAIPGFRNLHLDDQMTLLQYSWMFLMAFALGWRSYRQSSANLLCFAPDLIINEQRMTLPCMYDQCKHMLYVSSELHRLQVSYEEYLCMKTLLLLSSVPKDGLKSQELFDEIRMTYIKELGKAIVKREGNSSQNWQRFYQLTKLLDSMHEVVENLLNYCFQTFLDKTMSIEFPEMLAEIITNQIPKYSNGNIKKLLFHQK
Activity calls are given as the source filed them.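 The calls were made as follows: active = compounds whose dose series gives a full or clear partial fitted curve of increased nuclear translocation; inconclusive = weak partial curve or effect only at the top dose; inactive = no dose-dependent translocation response.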
QUANTITY KIND: Potency

Sure, the documented Potency for "COc1cccc(-c2cncnc2Nc2ccc(F)cc2)c1" is > 46 µM (inactive)

Sure, the documented Potency for "Cc1ccccc1-c1cncnc1NCc1cccs1" is > 46 µM (inactive)

Sure, the documented Potency for "c1nc(NC2CCNCC2)c2cc(-c3ccoc3)ccc2n1" is > 46 µM (inactive)

Sure, the documented Potency for "Cn1c(=O)c(-c2cccs2)nc2cncnc21" is > 9.22 µM (inactive)

Sure, the documented Potency for "COc1ccc(Oc2ncc3nc(C)c(=O)n(-c4ccccc4)c3n2)cc1" is > 9.22 µM (inactive)

Sure, the documented Potency for "N#CCCn1c(=O)c(-c2cccs2)nc2cnc(OCc3ccccc3)nc21" is > 9.22 µM (inactive)

====

experiment: qHTS for ATAD5 Antagonist screened against the NCATS CANVASS Library (AID 1347370); conditions: HEK293T-ATAD5-luc, 5-FUrd stimulated, luminescence, 16 h; series mostly up to 46.1 µM; note: nearly all actives have a fitted effect of over 65% in size; note: potency is the fitted concentration of half-maximal effect
Results filed as inconclusive are left out. The source made the active and inactive calls. Calls follow the shape of the dose curve; as a rule, active = well fitted inhibition curve with a large enough effect; inconclusive = small, poorly fitted or top-dose-only effect; inactive = no such curve, though single readings can be large or run the other way.
QUANTITY KIND: Potency

Solved entries:
C[n+]1cc2cc(C(N)=O)[nH]c3c(=N)c(Cl)c(N)c1c23 : inactive
CC1=C[C@H]2[C@H]3C(=O)C(c4ccc(O)cc4)=C[C@@]3(c3ccc(O)cc3)[C@@H]1C(=O)[C@]2(C)O : inactive
CC(CCC[C@]1(C)C(=O)C=C[C@@]23C[C@]4(C)O[C@@H](C[C@@H]4[C@H]2O)C31)C(=O)O (stereo partly specified) : inactive
C/C(=C\[C@H](C)C(=O)CCCC1CC(=O)NC(=O)C1)[C@@H]1OC(=O)/C=C/CC/C=C/[C@H](O)[C@@H](O)[C@@H]1C : 2.63 µM (active)
C[C@@]1(CCC(=O)Nc2c(O)ccc(C(=O)O)c2O)C(=O)C=C[C@]23C[C@H]4C[C@H](O[C@@]4(C)C2)C31 (stereo partly specified) : inactive

Sure, the documented Potency for "CN1C(=O)C(=O)N2C(=C[C@]3(c4c[nH]c5ccccc45)c4ccccc4N[C@H]23)C1=O" is inactive

Sure, the documented Potency for "CC(C)=CCC/C(C)=C/Cc1cc([C@@H]2CC(=O)c3c(cc(O)c(CC=C(C)C)c3O)O2)ccc1O" is inactive

Sure, the documented Potency for CO[C@H]1[C@@H](OC(=O)/C(C)=C\[C@@H]2O[C@@H]2[C@H]2O[C@H]2C)[C@H](O)[C@H](OCC23C[C@@H]4[C@H](C)CC[C@H]4C4(C=O)CC2C=C(C(C)C)C34C(=O)O)O[C@@H]1C (stereo partly specified) is inactive

Sure, the documented Potency for "C[C@H](c1cnc(N)[nH]1)c1ccc(O)c2[nH]cc(-c3cnc(-c4c[nH]c5ccccc45)c(=O)[nH]3)c12" is inactive

Sure, the documented Potency for C=C1[C@@]2(C)CC3C4(C)CCC(O)C(C)(C)C4CCC3(C)[C@]1(C(=O)OC)C(=O)C(C)(O)C2=O (stereo partly specified) is inactive

Sure, the documented Potency for "Cc1cc(O)cc2c1C(=O)c1c(O)cc(O)cc1C2=O" is inactive
